molecular target: Neu5Ac(a2-3)Gal; assay: glycan array binding signal (z-score within array); higher = stronger binding; conditions: glycan notation: IUPAC condensed, linker removed
Shown is part of a subset that was picked to be rich in the strongest signals.
Entries and their glycan array binding signal (z-score) values follow.

{"columns": ["binder", "glycan array binding signal (z-score)"],
 "data": [
  ["HA-11100 (Pseudomonas aeruginosa), Q02G51_PSEAB (protein) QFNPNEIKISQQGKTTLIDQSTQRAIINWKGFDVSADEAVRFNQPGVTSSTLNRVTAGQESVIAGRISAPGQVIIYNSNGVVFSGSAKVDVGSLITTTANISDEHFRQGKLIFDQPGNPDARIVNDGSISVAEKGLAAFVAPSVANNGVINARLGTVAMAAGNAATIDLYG", -0.148],
  ["FaeGab (Escherichia coli) (protein) WMTGDFNGSVDIGGSITADDYRQKWEWKVGTGLNGFGNVLNDLTNGGTKLTITVTGNKPILLGRTKEAFATPVSGGVDGIPQIAFTDYEGASVKLRNTDGETNKGLAYFVLPMKNAEGTKVGSVKVNASYAGVFGKGGVTSADGELFSLFADGLRAIFYGGLTTTVSGAALTSGSAAAARTELFGSLSRNDILGQIQRVNANITSLVDVAGSYREDMEYTDGTVVSAAYALGIANGQTIEATFNQAVTTSTQWSAPLNVAITYY", -0.477],
  ["MIC4-A5 (Toxoplasma gondii), Q9XZH7 (protein) SPDFHDEVECVHTGNIGSKAQTIGEVKRASSLSECRARCQAEKECSHYTYNVKSGLCYPKRGKPQFYKYLGDMTGSRTCDTS", -0.323]
]}
